Measured values drawn from paper PMC8113459 for this set.

Test: Cell viability assay (WST-8), MDA-MB-231
Assay type: cell-based, human
Settings: human, MDA-MB-231 cells, conc 30, 72 h, replicates; read-out: cell viability relative to control
Endpoint: viability at 72 h (%)

- Compound: "C=C(CN1CCOCC1)C(=O)NC[C@@H](NC(=O)[C@H](Cc1nc2ccc(C(C)C)cc2s1)NC(=O)CC)C1CCCCC1 [DI-1548]"
  Endpoint: "viability at 72 h"
  U: "%"
  Observed: 105
- Compound: "CCC(=O)N[C@@H](Cc1nc2ccc(C(C)C)cc2s1)C(=O)N[C@H](CNC(=O)CCN1CCOCC1)C1CCCCC1 [DI-591]"
  Endpoint: "viability at 72 h"
  U: "%"
  Observed: 113
- Compound: "NS(=O)(=O)OC[C@@H]1C[C@@H](n2ccc3c(N[C@H]4CCc5ccccc54)ncnc32)C[C@@H]1O [MLN4924]"
  Endpoint: "viability at 72 h"
  U: "%"
  Observed: 78.8
- Compound: "C=C(CN1CCOCC1)C(=O)NC[C@H](NC(=O)[C@@H](Cc1nc2ccc(C(C)C)cc2s1)NC(=O)CC)C1CCCCC1 [DI-1548DD]"
  Endpoint: "viability at 72 h"
  U: "%"
  Observed: 108

* * *

Measured viability at 72 h accompanies every entry in the list below.
Assay: Cell viability assay (WST-8), MDA-MB-231
Assay type: cell-based, human
Conditions: human, MDA-MB-231 cells, conc 10, 72 h, replicates; read-out: cell viability relative to control

- Molecule: "NS(=O)(=O)OC[C@@H]1C[C@@H](n2ccc3c(N[C@H]4CCc5ccccc54)ncnc32)C[C@@H]1O [MLN4924]"
  viability at 72 h (%): 98.2
- Molecule: "C=C(CN1CCOCC1)C(=O)NC[C@H](NC(=O)[C@@H](Cc1nc2ccc(C(C)C)cc2s1)NC(=O)CC)C1CCCCC1 [DI-1548DD]"
  viability at 72 h (%): 93.6
- Molecule: "CCC(=O)N[C@@H](Cc1nc2ccc(C(C)C)cc2s1)C(=O)N[C@H](CNC(=O)CCN1CCOCC1)C1CCCCC1 [DI-591]"
  viability at 72 h (%): 94.3

* * *

Measured concentration at 24 h accompanies every entry in the list below.
Assay: Pharmacokinetics: concentrations in mouse plasma and liver
Format: in vivo
Settings: male, C57BL/6, mouse, plasma, ip, 25 mg/kg, mouse plasma, IP 25mg/kg, 24h, single animals; limit of quantification 1 ng/mL; read-out: Concentration in mouse plasma, individual mice 1, 2, 3
Endpoint: concentration at 24 h

- Compound: "C=C(CN1CCOCC1)C(=O)NC[C@@H](NC(=O)[C@H](Cc1nc2ccc(C(C)C)cc2s1)NC(=O)CC)C1CCCCC1 [DI-1548]"
  Endpoint: "concentration at 24 h"
  Observed: "< 1 ng/mL"
- Compound: "C=C(CN(C)C)C(=O)NC[C@@H](NC(=O)[C@H](Cc1nc2ccc(C(C)C)cc2s1)NC(=O)CC)C1CCCCC1 [DI-1859]"
  Endpoint: "concentration at 24 h"
  Observed: "< 1 ng/mL"

* * *

Assay: Pharmacokinetics: concentrations in mouse plasma and liver
Type: in vivo
Settings: male, C57BL/6, mouse, liver, ip, 25 mg/kg, C57BL/6 male mice, 25 mg/kg IP, 3 h; read-out: Liver concentration
Endpoint: concentration at 3 h (ng/g)

- Compound: "C=C(CN(C)C)C(=O)NC[C@@H](NC(=O)[C@H](Cc1nc2ccc(C(C)C)cc2s1)NC(=O)CC)C1CCCCC1 [DI-1859]"
  Observed: 30
